# target_of_assay: human P2X7 receptor (Homo sapiens, UniProt Q99572, R270H/Y155H)
# method_summary: Evaluation of human P2X7 receptor inhibitory activity (Yo-Pro uptake, BzATP stimulation, FLIPR TETRA)
# Format: cell-based
# experimental_context: 1321N1 cells stably expressing human P2X7 receptor; BzATP stimulation, Yo-Pro uptake; read-out: IC50 (antagonistic activity for the human P2X7 receptor), class symbol
pIC50: −log10 of the molar value.
// pIC50 lookup, one value per entry

{"smiles_record": "COc1cn(Cc2ccccc2)c(Nc2cccc(SC)c2C)nc1=O", "pIC50": "> 8.00"}
{"smiles_record": "COc1cn(Cc2cccc(Cl)c2)c(Nc2ccc(C)cc2C)nc1=O", "pIC50": "7.00 to 8.00"}
{"smiles_record": "COC(=O)c1cccc(Nc2nc(=O)c(OC)cn2Cc2ccccc2)c1C", "pIC50": "6.30 to 7.00"}
{"smiles_record": "COc1cn(Cc2cc(F)cc(Cl)c2)c(Nc2cccc(C)c2Cl)nc1=O", "pIC50": "7.00 to 8.00"}
{"smiles_record": "CCc1cc(OC)c(OC)cc1Nc1nc(=O)c(F)cn1Cc1ccccc1", "pIC50": "> 8.00"}
{"smiles_record": "Cc1c(Cl)cccc1Nc1nc(=O)c(OCC(F)(F)F)cn1Cc1ccccc1", "pIC50": "7.00 to 8.00"}
{"smiles_record": "COc1cc(C)c(Nc2nc(=O)c(OC)cn2Cc2ccc(F)c(F)c2)cc1OC", "pIC50": "7.00 to 8.00"}
{"smiles_record": "COc1cn(Cc2cccc(F)c2)c(Nc2cc3sc(C)nc3cc2C)nc1=O", "pIC50": "7.00 to 8.00"}
{"smiles_record": "CCCc1ccccc1Nc1nc(=O)c(OC)cn1Cc1ccccc1", "pIC50": "6.00 to 6.30"}

###

// pIC50 lookup, one value per entry
# target_of_assay: human P2X7 receptor (Homo sapiens, UniProt Q99572, R270H/Y155H)
# method_summary: Evaluation of human P2X7 receptor inhibitory activity (Yo-Pro uptake, BzATP stimulation, FLIPR TETRA)
# Type: cell-based
# experimental_context: antagonistic activity for the human P2X7 receptor; read-out: IC50
pIC50: −log10 of the molar value.

{"smiles_record": "COc1ccc(C)c(Nc2nc(=O)cnn2Cc2cc(F)c(F)c(F)c2)c1", "target_of_assay": "human P2X7 receptor (Homo sapiens, UniProt Q99572, R270H/Y155H)", "pIC50": "> 8.00"}
{"smiles_record": "COc1cc(C)c(C)c(Nc2nc(=O)c(F)cn2Cc2cc(F)cc(F)c2)c1", "target_of_assay": "human P2X7 receptor (Homo sapiens, UniProt Q99572, R270H/Y155H)", "pIC50": "> 8.00"}
{"smiles_record": "Cc1cc(S(C)(=O)=O)cc(Nc2nc(=O)c(F)cn2Cc2cc(F)c(F)c(F)c2)c1C", "target_of_assay": "human P2X7 receptor (Homo sapiens, UniProt Q99572, R270H/Y155H)", "pIC50": "> 8.00"}
{"smiles_record": "COc1cn(Cc2ccccc2)c(Nc2ccc(Cl)cc2C)cc1=O", "target_of_assay": "human P2X7 receptor (Homo sapiens, UniProt Q99572, R270H/Y155H)", "pIC50": "6.30 to 7.00"}
